Recorded values, source patent US9176118B2.

assay: Decapitated locust model: hemolymph drug concentration by LCMS after administration via esophageal catheter; settings: male, Locusta migratoria (locust), in vivo, 2 µg per animal
MEASUREMENT NAME: concentration at 10 min (ng/mL)

>  <SMILES REPR>
Cn1c(=O)c2c(ncn2C)n(C)c1=O

>  <UNITS OF MEASURE>
ng/mL

>  <EXPERIMENTAL RESULT>
177

$$$$
